Molecular target: UniProtKB P35610
Sequence (P35610 whole entry): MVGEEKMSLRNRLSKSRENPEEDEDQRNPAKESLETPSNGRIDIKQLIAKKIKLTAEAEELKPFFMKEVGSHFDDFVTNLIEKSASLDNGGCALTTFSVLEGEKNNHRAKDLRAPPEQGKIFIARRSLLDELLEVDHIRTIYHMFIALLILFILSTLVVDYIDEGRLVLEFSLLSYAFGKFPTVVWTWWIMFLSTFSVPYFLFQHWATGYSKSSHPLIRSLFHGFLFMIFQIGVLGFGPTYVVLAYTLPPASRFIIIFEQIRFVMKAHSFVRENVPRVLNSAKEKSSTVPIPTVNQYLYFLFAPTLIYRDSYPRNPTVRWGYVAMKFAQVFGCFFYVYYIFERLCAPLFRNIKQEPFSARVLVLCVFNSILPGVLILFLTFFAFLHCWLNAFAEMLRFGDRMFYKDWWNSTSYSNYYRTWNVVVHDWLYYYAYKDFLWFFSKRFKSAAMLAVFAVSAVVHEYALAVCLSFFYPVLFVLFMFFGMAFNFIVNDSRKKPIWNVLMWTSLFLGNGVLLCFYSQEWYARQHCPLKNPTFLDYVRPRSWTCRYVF
Test: mixed liposome ACAT1 assay
Recorded Endpoint: pEC50
Lab note: report pEC50 as minus log10 of the concentration in molar units, number only.

Exercise: Looking for the measured pEC50 of CCCCCCCCCCCCS(=O)(=O)[C@](F)(C(=O)Nc1cc(C)c(O)c(C)c1C)c1ccccc1 [F26] , can you help?
Solution: 8.24
